Listed here: items and their measured pIC50.
Biological target: full-length human cGAS (Homo sapiens, UniProt Q8N884)
Construct: The cGAS assay was used to screen 100,000 compounds with full-length human cGAS; 6xHis; made in house
Sequence (Q8N884 whole entry): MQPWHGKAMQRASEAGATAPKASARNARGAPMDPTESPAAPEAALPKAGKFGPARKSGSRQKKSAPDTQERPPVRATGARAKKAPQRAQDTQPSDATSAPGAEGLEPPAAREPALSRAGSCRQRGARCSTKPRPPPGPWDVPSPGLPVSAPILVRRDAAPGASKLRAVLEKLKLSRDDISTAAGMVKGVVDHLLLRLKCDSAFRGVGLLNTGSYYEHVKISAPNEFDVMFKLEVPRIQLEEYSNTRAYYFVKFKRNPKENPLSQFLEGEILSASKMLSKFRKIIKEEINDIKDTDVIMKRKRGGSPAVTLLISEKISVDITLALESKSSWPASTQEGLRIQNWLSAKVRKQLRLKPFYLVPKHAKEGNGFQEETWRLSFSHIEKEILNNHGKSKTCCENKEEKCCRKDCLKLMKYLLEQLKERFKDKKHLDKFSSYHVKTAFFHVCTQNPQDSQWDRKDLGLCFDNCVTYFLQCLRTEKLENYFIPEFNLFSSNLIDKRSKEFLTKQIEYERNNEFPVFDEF
Experiment: cGAS enzymatic assay (FP readout), inhibition of cGAS
Format: biochemical
Details: cGAS (30 nM), with Mn2+; read-out: Inhibition cGAS + Mn^2+ (IC50 class)
pIC50: −log10 of the molar value.

Smiles String: Brc1ccc2c(-n3ccnc3)ccnc2c1
pIC50: 6.30 to 7.00
--
Smiles String: COc1cc2c(N3CCC[C@H]3C(=O)O)nc(-c3ccccc3)nc2cc1Cl
pIC50: < 5.00
--
Smiles String: Fc1ccc2c(-n3ccnc3)ccnc2c1
pIC50: < 5.00
--
Smiles String: COc1cc2c(-n3ccnc3)ccnc2cc1Cl
pIC50: > 7.00
--
Smiles String: Cc1cc(-n2ccnc2)c2ccc(Cl)cc2n1
pIC50: 6.30 to 7.00
--
Smiles String: O=C(Nc1ccc(C(=O)Nc2ccccc2C(=O)O)cc1)c1ccc(I)cc1
pIC50: < 5.00
--
Smiles String: COc1ccc2c(-n3ccnc3)ccnc2c1
pIC50: 5.00 to 6.00
--
Smiles String: Clc1ccc2c(-n3ccnc3)ncnc2c1
pIC50: < 5.00

---

Assay: Human microsomal stability (NADPH)
Format: in vitro ADME
Details: liver microsomes, read-out: Human MS Stability (NADPH) t1/2

Molecule: COc1cc2c(-n3ccnc3)ccnc2cc1Cl [Compound 14]
half-life: 1.93 h

---

Molecular target: full-length human cGAS (Homo sapiens)
Construct: The cGAS assay was used to screen 100,000 compounds with full-length human cGAS; 6xHis; made in house
Assay: cGAS enzymatic assay (FP readout), inhibition of cGAS
Format: biochemical
Settings: cGAS (30 nM), no Mn2+; read-out: Inhibition cGAS (IC50 class)
pIC50: −log10 of the molar value.
Measure Name: pIC50

Molecule: COc1ccccc1CC(=O)Nc1cccc(C(=O)Nc2ccccc2C(=O)O)c1 [Compound 30]
Measure Name: pIC50
Value Reported: < 5.00
--
Molecule: Clc1ccc2c(-n3ccnc3)ccnc2c1 [Compound 1, 7-chloro-4-(1H-imidazol-1-yl)quinolone]
Measure Name: pIC50
Value Reported: 5.00 to 6.00
--
Molecule: Nc1ccc2nccc(-n3ccnc3)c2c1 [Compound 11, 4-(1H-imidazol-1-yl)quinolin-6-amine]
Measure Name: pIC50
Value Reported: < 5.00
--
Molecule: O=C(O)[C@@H](Cc1ccccc1)Nc1ncnc2c1CCCC2 [Compound 32]
Measure Name: pIC50
Value Reported: < 5.00
--
Molecule: COc1ccc2nccc(-n3ccnc3)c2c1 [Compound 3, 4-(1H-imidazol-1-yl)-6-methoxyquinoline]
Measure Name: pIC50
Value Reported: < 5.00
--
Molecule: COc1cc2c(-n3ccnc3)ccnc2cc1Cl [Compound 14]
Measure Name: pIC50
Value Reported: 6.00 to 6.30
--
Molecule: COc1cc2c(-n3ccnc3)ccnc2cc1Br [Compound 22]
Measure Name: pIC50
Value Reported: 6.30 to 7.00
--
Molecule: Brc1ccc2nccc(-n3ccnc3)c2c1 [Compound 7, 6-bromo-4-(1H-imidazol-1-yl)quinoline]
Measure Name: pIC50
Value Reported: < 5.00
--
Molecule: Cc1cc2c(-n3ccnc3)ccnc2cc1Cl [Compound 16]
Measure Name: pIC50
Value Reported: 5.00 to 6.00
--
Molecule: O=C(O)CNc1nc(-c2ccccc2)nc2ccccc12 [Compound 2, (2-phenylquinazolin-4-yl)glycine]
Measure Name: pIC50
Value Reported: < 5.00

---

Target: full-length human cGAS (Homo sapiens, UniProt Q8N884)
Construct: The cGAS assay was used to screen 100,000 compounds with full-length human cGAS; 6xHis; made in house
Experiment: cGAS enzymatic assay (FP readout), inhibition of cGAS
Type: biochemical
Settings: cGAS (30 nM), with Mn2+; read-out: Inhibition cGAS + Mn^2+ (IC50 class)
Measure Name: IC50

Smiles String: Clc1ccc2c(-n3ccnc3)cc(-c3ccccc3)nc2c1
System Tested: full-length human cGAS (Homo sapiens, UniProt Q8N884)
Value Reported: 0.1 to 0.5 µM
--
Smiles String: O=C(O)CNc1nc(-c2ccccc2)nc2ccccc12
System Tested: full-length human cGAS (Homo sapiens, UniProt Q8N884)
Value Reported: > 10 µM
--
Smiles String: c1ccc(-c2ccc3nccc(-n4ccnc4)c3c2)cc1
System Tested: full-length human cGAS (Homo sapiens, UniProt Q8N884)
Value Reported: 1 to 10 µM
--
Smiles String: COc1ccc(CC(=O)Nc2cccc(C(=O)Nc3ccccc3C(=O)O)c2)cc1
System Tested: full-length human cGAS (Homo sapiens, UniProt Q8N884)
Value Reported: > 10 µM
--
Smiles String: O=C(Nc1ccccc1C(=O)O)c1ccc(NC(=O)c2ccccc2Br)cc1
System Tested: full-length human cGAS (Homo sapiens, UniProt Q8N884)
Value Reported: > 10 µM
--
Smiles String: COc1ccc2nccc(-n3ccnc3)c2c1
System Tested: full-length human cGAS (Homo sapiens, UniProt Q8N884)
Value Reported: 1 to 10 µM
